Biological target: Protein A, recombinant (Sigma P7837) (UniProt P38507 37-327)
Assay: SPR; steady state; aptamer immobilized 1030 RU
Settings: label: 3'-biotin, predicted stem-loop
readout kind: Kd (nM)
Record the value in nM, omitting the unit from your answer.

Tell me the measured Kd of PA#2/8[S1-58] 3'-biotin (structured_DNA) DNA: ATACCAGCTTATTCAATTAGCAACATGAGGGGGATAGAGGGGGTGGGTTCTCTCGGCT , please. 287
